Reported pIC50 values are given for each entry in this list.
Target: HLA-A1 (A*0101) (Homo sapiens, UniProt P04439, A114D/A174V/A182V/D101N/D185E/E176A/E190D/L180R/Q94H/R68K/S129P/T187R/V100A/V91M/W191G)
Experiment: biochemical
Assay type: binding
No end group written: not given here.
Expect pIC50 as a plain number equal to -log10 of the molar concentration.

Worked set:
Challenge: Need pIC50, item LADQLIHMYY [Peptide 9015.0187]
Response given: 8.60

Challenge: Now give it for AFTDLTIVY [Peptide 78.0348] too.
Response given: 7.51

Challenge: Now give it for RYSTQVDPGY [Peptide 9018.0039] too.
Response given: 4.91

Challenge: Now give it for YSDREIIY [Peptide 9012.0096] too.
Response given: 7.03

---
Challenge: Need pIC50, item LSEMIQWAY [Peptide 1580.17]
Response given: 8.82

Challenge: Now give it for GTADQLIHLY [Peptide 9018.0023] too.
Response given: 7.59

Challenge: Now give it for CTDIHYNY [Peptide 9012.0114] too.
Response given: 7.17

Challenge: Now give it for ELDPVDLLCY [Peptide 78.0017] too.
Response given: 7.59

----------
Target: A*3301 (Homo sapiens, UniProt P04439, A270S/D185E/E176V/E277Q/E87N/F33T/G231S/H175R/I121M/I218V/I322F/K168Q/K210R/L300P/L318F/M331R/P217A/Q86R/Q94H/R138Q/T323A/T345S/T97I/V358M/Y195H)
Test: biochemical
Type: binding
No end group written: not given here.
Reported IC50 values are given for each entry in this list.

Challenge: Need IC50, item QVVPAYNISK [Peptide 1589.06]
Response given: > 20 µM

Challenge: Now give it for NVAPIVHLK [Peptide 1589.21] too.
Response given: > 20 µM

Alright, here's another sequence for you.
Challenge: Need IC50, item GQVNCKGIYY [Peptide 88.0209]
Response given: > 20 µM

----------
Molecular target: DR7 (DRB1*0701) (Homo sapiens, UniProt P01903+P01911, A100R/A102G/A103Q/D57E/D86V/E43K/F76Y/K127E/L162R/M171V/P40G/Q125H/Q99D/R33Q/R42Y/R54Q/S133A/S66F/T210M/V115G/Y107V/Y59L/Y89S)
Experiment: biochemical
Assay type: binding
No end group written: not given here.
Reported IC50 values are given for each entry in this list.
Report the figure in µM without appending any unit label.

Worked set:
Challenge: Need IC50, item RYRFQKYKTLFVDVT [Peptide 90.0019]
Response given: 0.043

Challenge: Now give it for VEFMSFLTALKRFLQ [Peptide 89.0015] too.
Response given: 0.109

Challenge: Now give it for AKALQAIELQMMLET [Peptide 89.0171] too.
Response given: 0.051

Challenge: Now give it for QMFLGTVKIPPTVQI [Peptide 89.0188] too.
Response given: 4.65

Alright, here's another sequence for you.
Challenge: Need IC50, item VDFIVNDNDYLTQAE [Peptide 90.0031]
Response given: 7.28

----------
Target: A*2601 (Homo sapiens, UniProt P04439, A114D/A173T/A270S/D101N/D185E/E277Q/E87N/F33Y/G231S/I121R/I218V/K168Q/L180W/L300P/L318F/P208A/P217A/Q86R/Q94H/R138Q/S129P/T187R/T323A/T345S/V100A/V358M)
Assay: biochemical
Type: binding
No end group written: not given here.
readoutType: pIC50
Expect pIC50 as a plain number equal to -log10 of the molar concentration.

Challenge: Need pIC50, item QVDYYGLYY [Peptide 1580.19]
Response given: 6.11

Challenge: Now give it for VTQGLPREY [Peptide 9012.0128] too.
Response given: 5.41

Challenge: Now give it for ASDVTACPYNY [Peptide 9012.0176] too.
Response given: 5.23

---
Challenge: Need pIC50, item CTSASNPSPQY [Peptide 9012.0170]
Response given: 6.26

Challenge: Now give it for VQEKILDLY [Peptide 86.0149] too.
Response given: 5.09

Challenge: Now give it for STDLRDHIDY [Peptide 1580.18] too.
Response given: 5.02

Challenge: Now give it for VTEFRWYRY [Peptide 1549.42] too.
Response given: 5.50

Challenge: Now give it for CQDKILTHY [Peptide 86.0141] too.
Response given: 5.05

Challenge: Now give it for NTGILTVTY [Peptide 86.0152] too.
Response given: 5.50
